tested on: Spontaneously hypertensive male rats; experiment: Experiment 1-1 Hypotensive activity (oral, conscious spontaneously hypertensive rats); assay type: in vivo, rat; conditions: 10 mg/kg oral
Endpoint: Recovering time (h)
One number for each entry, in h.

Molecule: COC(=O)C1=C(C)NC(C)=C(C(N)=O)C1c1ccccc1[N+](=O)[O-] (centres unmarked) [C, reference compound]
System Tested: Spontaneously hypertensive male rats
Recovering time (h): 2.0

Report Recovering time for every entry below.
1. CCOC(=O)C1=C(C)NC(C)=C(C(=O)N(C)C)C1c1cccc([N+](=O)[O-])c1 (centres unmarked) [E, reference compound]
2. CCOC(=O)C1=C(C)NC(C)=C(C(=O)NC(C)C)C1c1ccccc1[N+](=O)[O-] (centres unmarked)

Solution:
1: 1.0; 2: 5.0

====

Test: Experiment 4-2 Acute toxicity, rats
Settings: rat, in vivo, po, male rats, 4 week age, 7 days
Text: Wistar male and female rats (4 week age) and ddy male and female mice (4 week age) were used. The compounds of Example Nos. 82 and 83 were each orally administered to […].
Endpoint: LD50 at 168 h (mg/kg)
Numbers only, in mg/kg.

# compound CCCCCCCCOC(=O)C1=C(C)NC(C)=C(C(=O)NC2CC2)C1c1ccccc1[N+](=O)[O-] (centres unmarked) ; its LD50 at 168 h = 320

====

assay: Experiment 4-2 Acute toxicity, rats; details: rat, in vivo, po, female rats, 4 week age, 7 days
Endpoint: LD50 at 168 h (mg/kg)
Give bare numbers, in mg/kg.

# molecule CCCCCCCCOC(=O)C1=C(C)NC(C)=C(C(=O)NC2CC2)C1c1ccccc1[N+](=O)[O-] (centres unmarked) [Example 82] ; its LD50 at 168 h = 50

====

system: isolated heart; test: Experiment 2-1 Activity on isolated heart; parameters: species or system Japanese white rabbit; settings: Oryctolagus cuniculus; 3 μg/heart; read-out: Reducing rate of heart pulse
Mark not satisfied for inhibition at 3 µg/heart values under 10%, and satisfied for everything at or above.

These solved cases illustrate the format of a correct answer.
Compound: CC1=C(C(=O)NC(C)C)C(c2ccccc2[N+](=O)[O-])C(C(=O)OCCC(C)C)=C(C)N1 (centres unmarked)
Label Class: satisfied

Compound: CCCCOC(=O)C1=C(C)NC(C)=C(C(=O)NC(C)C)C1c1cccc([N+](=O)[O-])c1 (centres unmarked)
Label Class: not satisfied

Compound: CCNC(=O)C1=C(C)NC(C)=C(C(=O)OC)C1c1ccccc1[N+](=O)[O-] (centres unmarked) [D, reference compound]
Label Class: not satisfied

Problem: Check if inhibition at 3 µg/heart >= 10% (inclusive). Item: CCCCCOC(=O)C1=C(C)NC(C)=C(C(=O)NC(C)C)C1c1cccc([N+](=O)[O-])c1 (centres unmarked)
Solution: satisfied

Problem: Check if inhibition at 3 µg/heart >= 10% (inclusive). Item: CCOC(=O)C1=C(C)NC(C)=C(C(=O)NC(C)C)C1c1ccccc1[N+](=O)[O-] (centres unmarked)
Solution: satisfied

Problem: Check if inhibition at 3 µg/heart >= 10% (inclusive). Item: CCCCCCOC(=O)C1=C(C)NC(C)=C(C(=O)NC(C)C)C1c1ccccc1[N+](=O)[O-] (centres unmarked)
Solution: satisfied

Problem: Check if inhibition at 3 µg/heart >= 10% (inclusive). Item: CCCCCCCOC(=O)C1=C(C)NC(C)=C(C(=O)NC(C)C)C1c1ccccc1[N+](=O)[O-] (centres unmarked)
Solution: satisfied

Problem: Check if inhibition at 3 µg/heart >= 10% (inclusive). Item: CC1=C(C(=O)NC(C)C)C(c2ccccc2[N+](=O)[O-])C(C(=O)OC(C)C)=C(C)N1 (centres unmarked)
Solution: not satisfied

====

Could you please report measured Recovering time for the items listed next?
system: Spontaneously hypertensive male rats; assay: Experiment 1-1 Hypotensive activity (oral, conscious spontaneously hypertensive rats); type: in vivo, rat; conditions: 10 mg/kg oral
One number for each entry, in h.

Molecule: CC1=C(C(=O)NC(C)C)C(c2ccccc2[N+](=O)[O-])C(C(=O)OCCC(C)C)=C(C)N1 (stereo not shown) [Example 47]
Recovering time / h: 3.0
//
Molecule: CC1=C(C(=O)NC(C)C)C(c2ccccc2[N+](=O)[O-])C(C(=O)OCC(C)C)=C(C)N1 (stereo not shown) [Example 46]
Recovering time / h: 1.5
//
Molecule: CC1=C(C(=O)NC(C)C)C(c2cccc([N+](=O)[O-])c2)C(C(=O)OCC(C)C)=C(C)N1 (stereo not shown) [Example 65]
Recovering time / h: 2.5

Report Recovering time for every entry below.
1. CC1=C(C(=O)NC(C)C)C(c2cccc([N+](=O)[O-])c2)C(C(=O)OC(C)C)=C(C)N1 (stereo not shown) [Example 63]
2. CCCCCOC(=O)C1=C(C)NC(C)=C(C(=O)NC(C)C)C1c1ccccc1[N+](=O)[O-] (stereo not shown) [Example 8]
3. CCCOC(=O)C1=C(C)NC(C)=C(C(=O)NC(C)C)C1c1ccccc1[N+](=O)[O-] (stereo not shown) [Example 44]
4. CCCCCCCCCCOC(=O)C1=C(C)NC(C)=C(C(=O)NC(C)C)C1c1ccccc1[N+](=O)[O-] (stereo not shown) [Example 52]

Solution:
1: 1.5; 2: 5.0; 3: 4.0; 4: 1.0

====

experiment: Experiment 4-1 Acute toxicity; conditions: rat, in vivo; oral, male rats, 5 week age, 7 days
Endpoint: LD50 at 168 h

Answered examples (2):
Molecule: CCCCCCCCCOC(=O)C1=C(C)NC(C)=C(C(=O)NC(C)C)C1c1ccccc1[N+](=O)[O-] (stereo not drawn) [Example 3]
LD50 at 168 h: 500 to 1000 mg/kg

Molecule: CCCCCCCCOC(=O)C1=C(C)NC(C)=C(C(=O)NC(C)C)C1c1ccccc1[N+](=O)[O-] (stereo not drawn) [Example 2]
LD50 at 168 h: 10 to 100 mg/kg

Next, consider the following molecule.
# molecule CCCCCCOC(=O)C1=C(C)NC(C)=C(C(=O)NC(C)C)C1c1ccccc1[N+](=O)[O-] (stereo not drawn) [Example 7] ; its LD50 at 168 h = > 1000 mg/kg

====

test system: isolated heart; assay: Experiment 2-1 Activity on isolated heart; design: species or system Japanese white rabbit; details: Oryctolagus cuniculus; 3 μg/heart; read-out: Reducing rate of heart pulse
Could you please report measured inhibition at 3 µg/heart for the items listed next?
Give bare numbers, in %.

Answered examples (5):
Molecule: CCCNC(=O)C1=C(C)NC(C)=C(C(=O)OCCC(C)C)C1c1ccccc1[N+](=O)[O-] (centres unmarked)
Measurement Unit: %
inhibition at 3 µg/heart: 1
--
Molecule: CC1=C(C(=O)NC(C)C)C(c2ccccc2[N+](=O)[O-])C(C(=O)OCCCC(C)C)=C(C)N1 (centres unmarked)
Measurement Unit: %
inhibition at 3 µg/heart: 25
--
Molecule: COC(=O)C1=C(C)NC(C)=C(C(N)=O)C1c1ccccc1[N+](=O)[O-] (centres unmarked) [C, reference compound]
Measurement Unit: %
inhibition at 3 µg/heart: 7
--
Molecule: COC(=O)C1=C(C)NC(C)=C(C(=O)OC)C1c1ccccc1[N+](=O)[O-] [Compound A, reference compound]
Measurement Unit: %
inhibition at 3 µg/heart: 10
--
Molecule: CC1=C(C(=O)NC(C)C)C(c2cccc([N+](=O)[O-])c2)C(C(=O)OCC(C)C)=C(C)N1 (centres unmarked)
Measurement Unit: %
inhibition at 3 µg/heart: 8

Report inhibition at 3 µg/heart for every entry below.
1. CC1=C(C(=O)NC(C)C)C(c2ccccc2[N+](=O)[O-])C(C(=O)OCC(C)C)=C(C)N1 (centres unmarked)
2. COC(=O)C1=C(C)NC(C)=C(C(=O)OCCN(C)Cc2ccccc2)C1c1cccc([N+](=O)[O-])c1.Cl (centres unmarked) [Compound B, hydrochloride, reference compound]
3. CCCCCCCCOC(=O)C1=C(C)NC(C)=C(C(=O)NC(C)C)C1c1ccccc1[N+](=O)[O-] (centres unmarked)
4. CCCOC(=O)C1=C(C)NC(C)=C(C(=O)NC(C)C)C1c1cccc([N+](=O)[O-])c1 (centres unmarked)
5. COC(=O)C1=C(C)NC(C)=C(C(=O)NC(C)C)C1c1ccccc1[N+](=O)[O-] (centres unmarked)
6. CCCCCCCCCCOC(=O)C1=C(C)NC(C)=C(C(=O)NC(C)C)C1c1ccccc1[N+](=O)[O-] (centres unmarked)

Solution:
1. 3
2. 5
3. 25
4. 6
5. 25
6. 15

Report inhibition at 3 µg/heart for every entry below.
1. CCCCCCCCCOC(=O)C1=C(C)NC(C)=C(C(=O)NC(C)C)C1c1ccccc1[N+](=O)[O-] (centres unmarked)
2. CCCCCOC(=O)C1=C(C)NC(C)=C(C(=O)NC(C)C)C1c1ccccc1[N+](=O)[O-] (centres unmarked)
3. CCOC(=O)C1=C(C)NC(C)=C(C(=O)N(C)C)C1c1cccc([N+](=O)[O-])c1 (centres unmarked) [E, reference compound]
4. CCCCOC(=O)C1=C(C)NC(C)=C(C(=O)NC(C)C)C1c1ccccc1[N+](=O)[O-] (centres unmarked)
5. CCCCOC(=O)C1=C(C)NC(C)=C(C(=O)NCCC)C1c1cccc([N+](=O)[O-])c1 (centres unmarked)
6. CCCOC(=O)C1=C(C)NC(C)=C(C(=O)NC(C)C)C1c1ccccc1[N+](=O)[O-] (centres unmarked)

Solution:
1. 20
2. 5
3. 1
4. 13
5. 11
6. 16
